Assignment: determine reported IC50 for the given compounds.
# system.under.test: human β-Secretase (AA 1-AA 460), sBACE-Fc (Homo sapiens)
# Construct: soluble part of the human β-Secretase (AA 1-AA 460) was cloned; Fc domain of IgG1; made in house
# method.description: Diluted TR-FRET assay
# Assay type: biochemical
# condition.summary: footnote a: diluted FRET assay, 50 times less enzyme, 6.5 h reaction time at r.t.; read-out: IC50 in TR-FRET assay (IC50 from the diluted FRET assay)
Field format: number, assumed nM, no unit text.

Ask | Dear colleague, please send me the reported IC50 for CCn1cc(C2(c3cccc(-c4cncc(C#N)c4)c3)N=C(N)c3c(F)cccc32)cc(C)c1=O (stereo not shown) when you can.
Reply | 8

Ask | Dear colleague, please send me the reported IC50 for CC#Cc1cncc(-c2cccc(C3(c4cc(C(F)F)c(=O)n(CC)c4)N=C(N)c4c(F)cccc43)c2)c1 (stereo not shown) when you can.
Reply | 6

Ask | Dear colleague, please send me the reported IC50 for CC#Cc1ccnc(-c2cccc([C@@]3(c4cc(C)c(=O)n(CC)c4)N=C(N)c4c(F)cccc43)c2)c1 when you can.
Reply | 5

Ask | Dear colleague, please send me the reported IC50 for CC#Cc1cncc(-c2cccc([C@@]3(c4cc(C)c(=O)n(C)c4)N=C(N)c4c(F)cccc43)c2)c1 when you can.
Reply | 6

Ask | Dear colleague, please send me the reported IC50 for CCn1cc(C2(c3cccc(-c4cncc(F)c4)c3)N=C(N)c3c(F)cccc32)cc(C)c1=O (stereo not shown) when you can.
Reply | 13

Ask | Dear colleague, please send me the reported IC50 for CCn1cc(C2(c3cccc(-c4cncnc4)c3)N=C(N)c3c(F)cccc32)cc(C)c1=O (stereo not shown) when you can.
Reply | 16

Ask | Dear colleague, please send me the reported IC50 for CC#Cc1cncc(-c2cc(C3(c4cc(C)c(=O)n(CC)c4)N=C(N)c4c(F)cccc43)ccn2)c1 (single isomer, unassigned) when you can.
Reply | 4

###

Assignment: determine reported IC50 for the given compounds.
# system.under.test: human β-Secretase (AA 1-AA 460), sBACE-Fc (Homo sapiens, UniProt P56817)
# Construct: soluble part of the human β-Secretase (AA 1-AA 460) was cloned; Fc domain of IgG1; made in house
# Sequence (P56817 22-460): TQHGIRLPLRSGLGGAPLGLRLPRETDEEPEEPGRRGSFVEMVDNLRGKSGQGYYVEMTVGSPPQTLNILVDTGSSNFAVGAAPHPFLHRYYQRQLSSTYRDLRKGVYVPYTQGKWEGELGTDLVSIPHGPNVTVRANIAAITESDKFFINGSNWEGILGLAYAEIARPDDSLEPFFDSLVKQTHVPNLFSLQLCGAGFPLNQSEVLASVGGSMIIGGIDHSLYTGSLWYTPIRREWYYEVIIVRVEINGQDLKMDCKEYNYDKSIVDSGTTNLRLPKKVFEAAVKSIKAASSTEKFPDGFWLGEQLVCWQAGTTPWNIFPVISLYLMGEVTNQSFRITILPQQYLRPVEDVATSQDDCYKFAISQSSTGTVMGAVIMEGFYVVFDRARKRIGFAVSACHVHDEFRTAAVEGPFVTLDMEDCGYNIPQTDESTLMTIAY
# method.description: TR-FRET assay
# Format: biochemical
# condition.summary: enzyme 2.7 μg/ml, substrate 100 nM, pH4.5, 15 minutes at r.t.
The answer should read as a number with its unit following.

Ask | Dear colleague, please send me the reported IC50 for CCn1cc(C2(c3cccc(-c4cncc(F)c4)c3)N=C(N)c3c(F)cccc32)cc(C(F)F)c1=O (stereo not shown) when you can.
Reply | 0.07 µM

Ask | Dear colleague, please send me the reported IC50 for COc1cncc(-c2cccc(C3(c4cc(C(F)(F)F)c(=O)n(C)c4)N=C(N)c4c(F)cccc43)c2)c1 (stereo not shown) when you can.
Reply | 0.054 µM

Ask | Dear colleague, please send me the reported IC50 for Cc1cc(C2(c3cccc(-c4cncc(F)c4)c3)N=C(N)c3c(F)cccc32)cn(C)c1=O (stereo not shown) when you can.
Reply | 0.061 µM

Ask | Dear colleague, please send me the reported IC50 for Cc1cc(C2(c3cccc(-c4cncnc4)c3)N=C(N)c3c(F)cccc32)cn(C)c1=O (stereo not shown) when you can.
Reply | 0.058 µM

FYI, the data here is from patent US20120165346A1.
